Test system: biotinyl-Met-oxazolone
Test: self-aminoacylation, catalytic enhancement (BMO) (fold over background); higher = more active; k-Seq, kA / k0A0; sequences stand for … in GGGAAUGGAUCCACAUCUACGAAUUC…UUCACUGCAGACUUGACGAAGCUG
Fewer inactive variants are shown than the library holds.
quantity-kind: self-aminoacylation

Request: Quick one: self-aminoacylation for AUAGACCUAGGUCAUCGGGUG [Fam2.2 aminoacylation ribozyme variant] ?
Response: 2.93

Request: And what about the sequence AUUAGCCUGGUCAUCAAGUGA [Fam2.1 aminoacylation ribozyme variant] ?
Response: 4.31

Request: And what about the sequence AUUACCCUGGUAAUCGUGUGA [Fam2.1 aminoacylation ribozyme variant] ?
Response: 3.48

Request: And what about the sequence UUUCGCCUAGGUCAUCGGGUG [Fam2.2 aminoacylation ribozyme variant] ?
Response: 6.25

Request: And what about the sequence AUUCACCUGGGUCAACGGGUG [Fam2.2 aminoacylation ribozyme variant] ?
Response: 3.9

Data origin, for the record: the supplement of paper PMC9233669
